Experiment: DMS-53 xenograft oral study: body and organ weights, haematology, biochemistry, histology
Type: in vivo, nude mice (BALBc nu/nu)
Test Conditions: oral gavage 21 days, 7.5 mg/kg
Parameter: Haematocrit (HCT) (%)
Express your answer in %, writing the number without its unit.

**Q:** Dear colleague, I am looking for the recorded Haematocrit (HCT) of the following molecule: CCN(C)C(=S)NN=C(c1ccccn1)c1ccccn1
**A:** 45

###

Experiment: DMS-53 xenograft oral study: body and organ weights, haematology, biochemistry, histology
Format: in vivo, nude mice (BALBc nu/nu)
Test Conditions: oral gavage 21 days, 5 mg/kg
Parameter: Haematocrit (HCT)
Write your answer as a measured quantity: the number, then the unit.

**Q:** // Haematocrit (HCT) lookup, key: CCN(C)C(=S)NN=C(c1ccccn1)c1ccccn1
**A:** 43%

###

Test system: PANC 1 pancreatic cancer cells
Experiment: MTT proliferation assay, PANC 1
Type: cell-based
Test Conditions: Homo sapiens; PANC 1, MTT, 72 h
Assign IC50 to each entry below.
Report the value in µM with no unit label.

**Q:** Could you share which IC50 value was measured for Nc1ccn([C@@H]2O[C@H](CO)[C@@H](O)C2(F)F)c(=O)n1 ?
**A:** 11

**Q:** IC50 for CC(=O)N(O)CCCCCNC(=O)CCC(=O)N(O)CCCCCNC(=O)CCC(=O)N(O)CCCCCN ?
**A:** 9.5

**Q:** # lookup: IC50 of O=c1[nH]cc(F)c(=O)[nH]1
**A:** 62.3

**Q:** Fill in the blank: the reported IC50 of CN(C(=S)NN=C(c1ccccn1)c1ccccn1)C1CCCCC1 is ____.
**A:** 0.05

###

System: MIAPaCa-2 pancreatic cancer cells
Experiment: MTT proliferation assay, MIAPaCa-2
Format: cell-based
Test Conditions: Homo sapiens, MIA PaCa-2; MIAPaCa-2, MTT, 72 h
Description: The pancreatic cancer cell lines, including MIAPaCa-2, PANC 1, CAPAN-2 and CFPAC-1 were a generous gift from Prof. Andrew Biankin (Garvan Institute, NSW, Australia). […] Table 2A. […] Growth and antiproliferative activity IC50 (μM) values of Dp4cycH4mT in a variety of pancreatic cell lines and in comparison to DFO and the clinically used drugs gemcitabine and 5-fluorouracil as determined by the MTT assay. […]
Parameter: pIC50
Worth noting: pIC50 values are minus log10 of concentrations stated in mol/L.

**Q:** Returns the measured pIC50 for the input molecule. Input: Nc1ccn([C@@H]2O[C@H](CO)[C@@H](O)C2(F)F)c(=O)n1 [Gemcitabine, gemcitabine]
**A:** 7.70

**Q:** Using the record for CN(C(=S)NN=C(c1ccccn1)c1ccccn1)C1CCCCC1 [Dp4cycH4mT] , report its pIC50.
**A:** 8.05

**Q:** Find the recorded pIC50 belonging to CC(=O)N(O)CCCCCNC(=O)CCC(=O)N(O)CCCCCNC(=O)CCC(=O)N(O)CCCCCN [DFO, desferrioxamine] and report it.
**A:** 4.41

**Q:** Which pIC50 value is on record for O=c1[nH]cc(F)c(=O)[nH]1 [5-fluorouracil] ?
**A:** 4.61

###

Provide the recorded IC90 for the entries that follow.
Test system: MIAPaCa-2 pancreatic cancer cells
Experiment: MTT proliferation assay, MIAPaCa-2
Type: cell-based
Test Conditions: Homo sapiens, MIA PaCa-2; MIAPaCa-2, MTT, 72 h

**Q:** Suppose we examine the molecule Nc1ccn([C@@H]2O[C@H](CO)[C@@H](O)C2(F)F)c(=O)n1 ; what IC90 value has been reported?
**A:** > 5 µM

**Q:** I would be grateful if you could share the reported IC90 for CN(C(=S)NN=C(c1ccccn1)c1ccccn1)C1CCCCC1 .
**A:** > 5 µM

**Q:** What does the record list as IC90 for CC(=O)N(O)CCCCCNC(=O)CCC(=O)N(O)CCCCCNC(=O)CCC(=O)N(O)CCCCCN ?
**A:** > 80 µM

**Q:** So what does the record say about IC90 for O=c1[nH]cc(F)c(=O)[nH]1 ?
**A:** > 5 µM
